# experiment: qHTS for identification of novel therapeutic agents for treatment of microphthalmiaassociated transcription factor (MiT) renal cell carcinoma (RCC) (AID 1963991);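 note: curves scaled with 100% = DMSO viability and 0% = empty wells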
# applied conditions: TFE3-RCC viability, CellTiter-Glo, 48 h; measured here: UOK145 Z-AUC; stronger effect = lower value
Results filed as inconclusive are left out. Non-standard residues stand in square brackets, D forms with d. Residues, ends and D or L forms follow the SMILES beside them. *: point of attachment. Nva = CCC[C@H](N)C(=O)O; Cbz = O=C(OCc1ccccc1)*
Exam item: assign satisfied to entries whose z-score is below 0.7 and not satisfied to entries at or above 0.7. Note that a value of exactly 0.7 receives not satisfied.

INSERT INTO assay_data (compound, group) VALUES
  ('O=C(Nc1ccc(Oc2ccnc3[nH]ccc23)c(F)c1)c1cccn(-c2ccc(F)cc2)c1=O', 'satisfied'),
  ('NC[C@H]1O[C@H](O[C@H]2[C@@H](O)[C@@H](O[C@H]3O[C@H](CO)[C@@H](O)[C@H](N)[C@@H]3O)[C@H](N)C[C@@H]2N)[C@H](N)C[C@H]1O', 'not satisfied'),
  ('Cc1ccc(O)c(C(CCN(C(C)C)C(C)C)c2ccccc2)c1 (stereo unspecified)', 'not satisfied'),
  ('Nc1ccn(C2CO[C@H](CO)O2)c(=O)n1 (stereo partly specified)', 'not satisfied'),
  ('NC(=O)c1cccc(-c2cccc(OC(=O)NC3CCCCC3)c2)c1', 'not satisfied'),
  ('C#C[C@]1(O)CC[C@@H]2[C@@H]3CCC4=CC(=O)CC[C@@H]4[C@H]3CC[C@@]21CC', 'satisfied'),
  ('O=C(CN1C(=O)C2(CCCC2)NC[C@H]1c1cc(F)cc(F)c1)Nc1ccc2c(c1)C[C@@]1(C2)C(=O)Nc2ncccc21', 'not satisfied'),
  ('CC(C)OC(=O)[C@H](C)N[P@](=O)(OC[C@H]1O[C@@H](n2ccc(=O)[nH]c2=O)[C@](C)(F)[C@H]1O)Oc1ccccc1', 'satisfied'),
  ('CCCCCCCN(CC)CCCC(O)c1ccc(NS(C)(=O)=O)cc1 (stereo unspecified)', 'satisfied'),
  ('Cc1[nH]c(C=C2C(=O)Nc3ccccc32)c(C)c1CCC(=O)O', 'satisfied'),
  ('NC(=O)c1ncn([C@@H]2O[C@H](CO)[C@@H](O)[C@@H]2O)c1O', 'satisfied'),
  ('CC(C)(C)[C@H](NC(=O)c1ccc(N)c(Cl)c1)C(=O)N1CCC[C@@H]1C(=O)N[C@H](C#N)CC(=O)O', 'not satisfied'),
  ('CCC[C@@H](C=O)NC(=O)[C@H](CC(C)C)NC(=O)[C@H](CC(C)C)NC(=O)OCc1ccccc1 (Cbz-Leu-Leu-[Nva]-aldehyde)', 'satisfied'),
  ('CCC[C@H]1C[C@H](C(=O)N[C@@H]([C@@H]2O[C@@H](SC)[C@@H](O)[C@@H](O)[C@@H]2O)[C@H](C)Cl)N(C)C1', 'satisfied'),
  ('Nc1cccc2c1C(=O)N(C1CCC(=O)NC1=O)C2=O (stereo unspecified)', 'satisfied');

---

# parasite growth remaining, % of DMSO control (lower = more inhibition) per record follows
# experiment: qHTS profiling of the MIPE4 collection as inhibitors of Plasmodium falciparum (DD2) proliferation (AID 743345)
# applied conditions: P. falciparum Dd2 in erythrocytes, SYBR Green DNA, 72 h; at 28.5 µM (top of the series) unless noted
measured attribute: parasite growth remaining, % of DMSO control (lower = more inhibition) (%)

INSERT INTO results (molecule, readout_units, measured) VALUES
  ('CC(C(C)N1CC(=O)NC(=O)C1)N1CC(=O)NC(=O)C1 (configuration not stated)', '%', 80.3),
  ('Nc1nc2c(c(=O)[nH]1)N(C=O)[C@H](CNc1ccc(C(=O)N[C@@H](CCC(=O)O)C(=O)O)cc1)CN2', '%', 96.2),
  ('COc1cc(OC)c(NC(=O)Nc2cc(C)on2)cc1Cl', '%', 100),
  ('Oc1cc(-c2nc(-c3ccccc3)[nH]c2-c2ccncc2)ccc1Cl', '%', 9.67),
  ('CN[C@H]1[C@@H](O)[C@@H]2O[C@@H]3O[C@H](C)CC(=O)[C@]3(O)O[C@@H]2[C@@H](NC)[C@H]1O', '%', 85.6),
  ('COc1cc2c(cc1O)CCC1C2CC[C@@]2(C)C1CC[C@@H]2O (some centres not stated)', '%', 94.6),
  ('CC(C=CC(=O)NO)=C[C@@H](C)C(=O)c1ccc(N(C)C)cc1', '%', 7.38),
  ('O=C(Nc1cc2cc[nH]c2cn1)c1ccccc1', '%', 88),
  ('CC(=O)ON=C1C(c2c(O)[nH]c3cc(Br)ccc23)=Nc2ccccc21', '%', 6.76),
  ('CCCNC(=O)[C@H]1O[C@H]1C(=O)N[C@H](C(=O)N1CCC[C@@H]1C(=O)OC)C(C)CC (some centres not stated)', '%', 94.3);

Values were extracted from PubChem BioAssay (NCATS).
